Measured half-life, listed per entry for reference.
# ASSAY DETAILS: Chemical stability assessed as half life at pH 4 at 40 degC
# Assay type: physicochemical
# APPLIED CONDITIONS: buffer

Examples with answers:
[[record]]
record_smiles = "O=S(=O)([O-])CCCCCCN(Cl)Cl.[Na+]"
readout_value = "168 h"

[[record]]
record_smiles = "CCCC(CCC)(CS(=O)(=O)[O-])N(Cl)Cl.[Na+]"
readout_value = "12 h"

[[record]]
record_smiles = "CC1(C)CC(C)(C)CC(CS(=O)(=O)[O-])(N(Cl)Cl)C1.[Na+]"
readout_value = "24 h"


Using the record for O=S(=O)([O-])CCCCCN(Cl)Cl.[Na+] , report its half-life. 120 h

Follow-up item: CCC(CC)(CS(=O)(=O)[O-])N(Cl)Cl.[Na+] 24 h

Likewise for O=S(=O)([O-])CCCCCCCN(Cl)Cl.[Na+] ? 48 h
